The reported measurements were obtained from patent US12479895B2.

Test system: dopamine neurons
Test: Survival of TH-positive dopamine neurons in dissociated midbrain floor cultures
Format: cell-based, mouse
Conditions: Table 4, exp2, 10 ng/ml; data of Table 3 divided by values of no factor
For each of the sequences below, state its Fold change of survived neurons compared to neurons grown without growth factors.
Answers are plain numbers, in fold.

Solved cases (3 shown):
| CHAIN | REPORTED MEASUREMENT |
| --- | --- |
| VDLRKMRVAELKQILHSWGEECRACAEKTDYVNLIQELAPKYAATHPKTEL (listed as Homo sapiens) [pep5] | 1.31 |
| TLDLASVDLRKMRVAELKQILHSWGEECRACAEKTDYVNLIQELAPKYAATHPKTEL (listed as Homo sapiens) [pep2] | 0.93 |
| KYEKTLDLASVDLRKMRVAELKQILHSWGEECRACAEKTDYVNLIQELAPKYA (listed as Homo sapiens) [pep3] | 1.02 |

# batch: return Fold change of survived neurons compared to neurons grown without growth factors for each of the 3 sequences below
1. VDLRKMRVAELKQILHSWGEECRACAEKTDYVNLIQELAPKYA (listed as Homo sapiens) [pep6]
2. KYEKTLDLASVDLRKMRVAELKQILHSWGEECRACAEKTDYVNLIQELAP (listed as Homo sapiens) [pep7]
3. TLDLASVDLRKMRVAELKQILHSWGEECRACAEKTDYVNLIQELAPKYA (listed as Homo sapiens) [pep4]

Data returned:
1. 1.33
2. 1.32
3. 1.29
